# log10 IC50 per entry for FGFR1 (Homo sapiens, UniProt P11362)
All values: log10 IC50 [nM].

compound	tested-system	log10 IC50
COc1cc(OC)c(Cl)c(-c2cc(C(=O)Nc3cccc(N4CCOCC4)c3)c3cn[nH]c3c2)c1Cl [Compound 12f]	FGFR1 (Homo sapiens, UniProt P11362)	1.73
COc1cc(OC)c(Cl)c(-c2cc(C(=O)Nc3cccc(-c4cnn(C)c4)c3)c3cn[nH]c3c2)c1Cl [Compound 12h]	FGFR1 (Homo sapiens, UniProt P11362)	2.01
COc1cc(OC)c(Cl)c(-c2cc(C(=O)Nc3ccccc3)c3cn[nH]c3c2)c1Cl [Compound 10a]	FGFR1 (Homo sapiens, UniProt P11362)	1.84
C=CCN1CCN(c2cccc(NC(=O)c3cc(-c4c(Cl)c(OC)cc(OC)c4Cl)cc4[nH]ncc34)c2)CC1 [Compound 13c]	FGFR1 (Homo sapiens, UniProt P11362)	2.67

Entry under review: CNC(=O)c1cccc(NC(=O)c2cc(-c3c(Cl)c(OC)cc(OC)c3Cl)cc3[nH]ncc23)c1 [Compound 12b] . Reported log10 IC50?
1.59
